target system: T1, biotinylated CD3 epsilon:delta heterodimer protein (Amsbio AMS.CDD-H52WO) (Homo sapiens (Human), UniProt P07766 23-126; P04234 22-105)
T1 construct: also called CD3 heterodimer
protocol notes: BLI (Octet), CD3 on SA sensor, Fab analyte;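 note: biolayer interferometry with biotinylated CD3 epsilon:delta captured on streptavidin sensors, Fab analyte at several concentrations up to 300 nM, 100 s association then 300 s dissociation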
pKd: −log10 of the molar value.
# binarize pKd: threshold 7 inclusive, high side t, low side f

binder	label value
huSP34.3.6 Fab-HF (Fab, V domains shown, also called HC3+LC6) VH: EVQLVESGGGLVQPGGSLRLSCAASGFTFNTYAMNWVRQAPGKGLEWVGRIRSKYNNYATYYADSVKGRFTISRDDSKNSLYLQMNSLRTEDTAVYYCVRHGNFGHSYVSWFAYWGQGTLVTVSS VL: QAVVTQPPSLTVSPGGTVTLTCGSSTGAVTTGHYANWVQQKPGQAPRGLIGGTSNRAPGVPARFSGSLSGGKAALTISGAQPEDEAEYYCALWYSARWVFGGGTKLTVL	t
mSP34 Fab-HF (Fab, V domains shown, also called mSP34 chimeric Fab; mSP34 human chimeric Fab) VH: EVKLLESGGGLVQPKGSLKLSCAASGFTFNTYAMNWVRQAPGKGLEWVARIRSKYNNYATYYADSVKDRFTISRDDSQSILYLQMNNLKTEDTAMYYCVRHGNFGNSYVSWFAYWGQGTLVTVSA VL: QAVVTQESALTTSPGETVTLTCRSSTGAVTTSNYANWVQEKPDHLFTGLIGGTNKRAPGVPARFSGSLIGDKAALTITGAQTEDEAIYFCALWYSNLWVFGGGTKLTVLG	t
huSP34.8.1 Fab-HF (Fab, V domains shown, also called HC8+LC1) VH: EVQLVESGGGLVQPGGSLRLSCAASGFTFSDYAMNWVRQAPGKGLEWVGRTRSKYNNYATYYAASVKGRFTISRDDSKNSLYLQMNSLKTEDTAVYYCVRHGNFGHSYVSWFAVWGQGTLVTVSS VL: QAVVTQEPSLTVSPGGTVTLTCRSSTGAVTTSNYANWVQQKPGQAPRGLIGGTNKRAPWTPARFSGSLIGDKAALTLSGAQPEDEAEYYCALWYSNLWVFGGGTKLTVL	f
huSP34.9.6 Fab-HF (Fab, V domains shown, also called HC9+LC6) VH: EVQLVESGGGLVQPGGSLRLSCAASGFTFSDYAMNWVRQAPGKGLEWVGRTRSKYNSYATYYAASVKGRFTISRDDSKNSLYLQMNSLKTEDTAVYYCVRHGNFGNSYVSWFAVWGQGTLVTVSS VL: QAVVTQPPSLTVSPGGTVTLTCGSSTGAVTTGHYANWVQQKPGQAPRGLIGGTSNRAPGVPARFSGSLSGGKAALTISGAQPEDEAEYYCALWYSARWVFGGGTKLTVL	f
